tested on: MILI (PIWIL2) piRISC loaded with L1MC piRNA (26 nt); experiment: pre-steady-state target cleavage rate (min^-1); guide: L1MC piRNA 5'p-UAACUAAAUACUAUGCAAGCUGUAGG; MIWI and MILI are mouse PIWI proteins and EfPiwi is from a freshwater sponge; tags in brackets are library labels; higher = faster piRNA-guided slicing of the target; details: auxiliary factor: 500 nM mouse GTSF1;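 note: 1 nM active piRISC with 0.1 nM target library at 33 °C single turnover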
The label depends only on pre-steady-state target cleavage rate: y if it is at least 0.2, n if it is smaller.

Say whether "UCCUGGAUGAGCUUGCAUAGUAUUGAGUUA" shows pre-steady-state target cleavage rate of 0.2 or more.
n

Does the reported pre-steady-state target cleavage rate for "UCCUGGAACAGCUUGCAUAGUUUUUAGUAA" fall at or above the 0.2 mark?
n

Exam item: decide whether the reported pre-steady-state target cleavage rate for "UCCUGGAACAGCUUGAUAGUAUUUAGUUA" is at least 0.2.
n

Confirm if pre-steady-state target cleavage rate reported for the sequence "UCCUGGAUGUGCUUACAUAGUAUUUAGUUA" is 0.2 or above.
n

Given the entry "UCCUGGUACAGCAACCAUAGUAUUUAGUAA" , answer whether its pre-steady-state target cleavage rate meets or surpasses 0.2.
y
